Target: T1, CRBN, Q96SW2;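 also: pooled lentiviral library of zinc finger degron-EGFP fusions in mCherry-positive Jurkat cells, FACS-sorted after compound exposure, with degron abundance counted by next-generation sequencing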
T1 chain: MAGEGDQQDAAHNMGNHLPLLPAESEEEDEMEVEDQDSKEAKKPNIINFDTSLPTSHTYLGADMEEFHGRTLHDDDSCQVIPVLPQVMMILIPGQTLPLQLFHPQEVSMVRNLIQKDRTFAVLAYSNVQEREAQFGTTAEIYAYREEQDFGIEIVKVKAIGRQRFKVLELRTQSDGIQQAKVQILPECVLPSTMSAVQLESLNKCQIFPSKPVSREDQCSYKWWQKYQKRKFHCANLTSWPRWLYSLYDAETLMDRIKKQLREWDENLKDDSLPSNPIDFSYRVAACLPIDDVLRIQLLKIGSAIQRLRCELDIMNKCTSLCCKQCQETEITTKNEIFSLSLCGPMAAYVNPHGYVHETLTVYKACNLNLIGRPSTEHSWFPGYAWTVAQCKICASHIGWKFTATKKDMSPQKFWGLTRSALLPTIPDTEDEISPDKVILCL
Experiment: log2 fold change of degron read counts, EGFP-low vs EGFP+ sorted cells (limma voom), compound-induced degradation; higher = more compound-induced degradation of the degron-EGFP fusion; degrons are variants of IKZF1/3 zinc finger 2; compound dose not given here
Details: Jurkat; 18 h; compound: compound 19 (5-tert-butyl-thalidomide)
In all, about 8,300 sequences were measured (“log2 fold change of degron read counts, EGFP-low vs EGFP+ sorted cells (limma voom), compound-induced degradation”: median about -1.1, highest 2% from about 3.2 on). The list comes from a sample in which the highest values are over-represented; it also holds close analogues and randomly drawn sequences.
Is log2 fold change of degron read counts at least 2? Then Y. If not, N.

Look over these answered cases.
FTCPVCGAAFTQKGNLLRHIKL [46F_47T_49P_50V_52G_53A_54A_55F_67L_, Q9UKT9]	Y
LDCNQCGFVCTQKGNLLRHIKL [46L_47D_49N_50Q_52G_53F_54V_55C_67L_, Q9UKT9]	N
FSCPICGAMFTQKGNLLRHIKL [46F_47S_49P_50I_52G_53A_54M_55F_67L_, Q9UKT9]	N
FQCPICGAMFTQKGNLLRHIKL [46F_47Q_49P_50I_52G_53A_54M_55F_67L_, Q9UKT9]	N
FYCPICGAMFTQKGNLLRHIKL [46F_47Y_49P_50I_52G_53A_54M_55F_67L_, Q9UKT9]	Y
FSCDVCGAMFTQKGNLLRHIKL [46F_47S_49D_50V_52G_53A_54M_55F_67L_, Q9UKT9]	N
FGCPICGAMFTQKGNLLRHIKL [46F_47G_49P_50I_52G_53A_54M_55F_67L_, Q9UKT9]	Y
FYCNVCGAVFTQKGNLLRHIKL [46F_47Y_49N_50V_52G_53A_54V_55F_67L_, Q9UKT9]	N

INPUT: Is the recorded value of log2 fold change of degron read counts equal to or greater than 2 for this sequence? FDCEVCGAAFTQKGNLLRHIKL [46F_47D_49E_50V_52G_53A_54A_55F_67L_, Q9UKT9]
OUTPUT: Y

INPUT: Is the recorded value of log2 fold change of degron read counts equal to or greater than 2 for this sequence? FSCEVCGAAFTQKGNLLRHIKL [46F_47S_49E_50V_52G_53A_54A_55F_67L_, Q9UKT9]
OUTPUT: Y

INPUT: Is the recorded value of log2 fold change of degron read counts equal to or greater than 2 for this sequence? FTCNVCGAAFTQKGNLLRHIKL [46F_47T_49N_50V_52G_53A_54A_55F_67L_, Q9UKT9]
OUTPUT: N

INPUT: Is the recorded value of log2 fold change of degron read counts equal to or greater than 2 for this sequence? FICNVCGAVFTQKGNLLRHIKL [46F_47I_49N_50V_52G_53A_54V_55F_67L_, Q9UKT9]
OUTPUT: N

INPUT: Is the recorded value of log2 fold change of degron read counts equal to or greater than 2 for this sequence? FTCEVCGAAFTQKGNLLRHIKL [46F_47T_49E_50V_52G_53A_54A_55F_67L_, Q9UKT9]
OUTPUT: Y

INPUT: Is the recorded value of log2 fold change of degron read counts equal to or greater than 2 for this sequence? FVCPICGADFTQKGNLLRHIKL [46F_47V_49P_50I_52G_53A_54D_55F_67L_, Q9UKT9]
OUTPUT: N

src = the supplement of paper PMC12645437
